Please find below pKi measurements for UniProtKB P28221, combined from several publications.
Sequence (P28221 whole entry): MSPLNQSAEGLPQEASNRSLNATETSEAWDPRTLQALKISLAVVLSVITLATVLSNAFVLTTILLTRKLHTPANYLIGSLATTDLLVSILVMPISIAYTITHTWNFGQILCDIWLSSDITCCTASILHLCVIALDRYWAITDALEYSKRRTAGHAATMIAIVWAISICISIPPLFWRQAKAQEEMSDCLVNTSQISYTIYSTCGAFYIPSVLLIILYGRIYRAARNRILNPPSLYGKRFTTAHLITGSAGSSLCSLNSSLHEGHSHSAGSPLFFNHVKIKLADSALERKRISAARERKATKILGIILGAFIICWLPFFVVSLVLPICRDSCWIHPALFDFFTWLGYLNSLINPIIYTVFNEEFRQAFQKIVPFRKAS
pKi field: float, defined as -log10 of concentration (mol/L).

// below: answered molecules
Ask: Name the reported pKi value associated with the molecule COc1cc2c(cc1N1CCN(C)CC1)N(C(=O)c1ccc(-c3cccc(C)n3)c3ccccc13)CC2
Result: 7.60

Ask: Try this molecule too: COc1ccc(NC(=O)N2CCN(c3ccccc3OC)CC2)cc1N1CCN(C)CC1
Result: 7.05

Ask: Try this molecule too: COc1ccccc1N1CCN(CCCCCC(=O)NCc2ccccc2-c2ccccc2Cl)CC1
Result: 6.91

Others:
Ask: Name the reported pKi value associated with the molecule CN1CCC(c2c[nH]c3ccc(NC(=O)c4ccc(F)cc4)nc23)CC1
Result: 6.14

Ask: Try this molecule too: CN1CCC(C2CNc3ccc(NC(=O)c4ccc(F)cc4)cc32)CC1 (stereo in doubt; 3)
Result: 5.64

Ask: Try this molecule too: COc1cc2c(cc1N1C[C@@H](C)N(C)[C@@H](C)C1)N(C(=O)Cc1cccc(C(F)(F)F)c1F)CC2
Result: 6.90

Ask: Try this molecule too: CN1CCC[C@@H]1Cc1c[nH]c2ccc(C3=CCN(/C(S)=N/C45C[C@H]6C[C@@H](C4)C[C@@H](C5)C6)CC3)cc12
Result: 8.25

Ask: Try this molecule too: Cc1nc(-c2ccc(-c3ccc(C(=O)Nc4ccc5c(c4)N(CCN(C)C)CCO5)cc3)c(C)c2)no1
Result: 7.70
